Below: a set of entries, each annotated with reported pIC50.
TARGET ENTITY: cIAP1-BIR2 (Homo sapiens (Human), UniProt Q13490)
Sequence (Q13490 173-257): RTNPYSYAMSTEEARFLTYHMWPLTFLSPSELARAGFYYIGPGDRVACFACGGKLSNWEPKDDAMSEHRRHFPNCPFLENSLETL
TEST SUMMARY: BIR binding assay (FRET competition), cIAP1 BIR2
pIC50: −log10 of the molar value.
READOUT KIND: pIC50

COMPOUND STRUCTURE STRING	ASSAY VALUE
C[C@@H]1CN(CC(=O)N2CC(C)(C)c3[nH]c(=O)c(Cc4ccc(F)cc4)cc32)[C@@H](CN2CCN(CCc3cn(CCCCC(=O)N4CCN(C[C@H]5CN[C@H](C)CN5CC(=O)N5CC(C)(C)c6[nH]c(=O)c(Cc7ccc(F)cc7)cc65)[C@H](C)C4)nn3)C[C@H]2C)CN1	5.50 to 6.00
C[C@@H]1CN(CC(=O)N2CC(C)(C)c3[nH]c(=O)c(Cc4ccc(F)cc4)cc32)[C@@H](CN2CCO[C@H](C(=O)NCCCCCCCCNC(=O)[C@@H]3CN(C[C@H]4CN[C@H](C)CN4CC(=O)N4CC(C)(C)c5[nH]c(=O)c(Cc6ccc(F)cc6)cc54)CCO3)C2)CN1	5.50 to 6.00
C[C@@H]1CN(CC(=O)N2CC(C)(C)c3[nH]c(=O)c(Cc4ccc(F)cc4)cc32)[C@@H](CN2CCN(C(=O)c3ccc(C(=O)N4CCN(C[C@H]5CN[C@H](C)CN5CC(=O)N5CC(C)(C)c6[nH]c(=O)c(Cc7ccc(F)cc7)cc65)[C@H](C)C4)cc3)C[C@H]2C)CN1	6.00 to 7.65
C[C@@H]1CN(CC(=O)N2CC(C)(C)c3[nH]c(=O)c(Cc4ccc(F)cc4)cc32)[C@@H](CN2CCO[C@H](COCc3c(F)c(F)c(COC[C@@H]4CN(C[C@H]5CN[C@H](C)CN5CC(=O)N5CC(C)(C)c6[nH]c(=O)c(Cc7ccc(F)cc7)cc65)CCO4)c(F)c3F)C2)CN1	5.00 to 5.50
